# Tested on: 22Rv1 cells
# Test Description: MTT assay (cytotoxicity), 22Rv1 cells
# Type: cell-based
# Recorded Conditions: 72 h, Table 2.1
Exercise: for every item that follows, state its recorded IC50.

Query: Request body: readout IC50, system 22Rv1 cells, query O=C(N/C=C/c1cc(C(F)(F)F)cc(C(F)(F)F)c1)Nc1cccnc1 [Compound 503] . Return the value.
Result: 11.3 µM

Query: I'm curious: which IC50 was measured for O=C(N/C=C/c1cc(C(F)(F)F)cc(C(F)(F)F)c1)Nc1cnccn1 [Compound 528] tested on 22Rv1 cells?
Result: < 1 µM

Query: Give the reported IC50 for N#Cc1ccc(NC(=O)N/C=C/c2cc(C(F)(F)F)ccc2C(F)(F)F)nc1 [Compound 481] (system: 22Rv1 cells).
Result: 2.6 µM

Query: Query IC50 on 22Rv1 cells for N#Cc1ccc(NC(=O)N/C=C/c2cc(C(F)(F)F)cc(C(F)(F)F)c2)nc1 [Compound 483]
Result: 2.3 µM

Query: What is its IC50 for 22Rv1 cells? Entry: N#Cc1ccc(NC(=O)N/C=C/c2cccc(C(F)(F)F)c2)cn1 [Compound 510]
Result: 6.6 µM

Query: Requested read-out IC50, target or system 22Rv1 cells, entry O=C(N/C=C/c1cc(C(F)(F)F)cc(C(F)(F)F)c1)Nc1cnccc1Cl [Compound 533]
Result: 10.9 µM

---

# Test Description: MTT assay (cytotoxicity), 22Rv1 cells
# Format: cell-based
# Recorded Conditions: human, 22Rv1 cells, 72 h, Table 2.3
Value Kind: IC50 at 72 h

Query: // query IC50 at 72 h value for entry O=C(N/C=C/c1cc(C(F)(F)F)ccc1C(F)(F)F)Nc1cnc2ccccc2c1
Result: 8.4 µM

Query: Quick check: IC50 at 72 h of COc1cccc(/C=C/NC(=O)Nc2ccc3c(c2)OCO3)c1 ?
Result: > 20 µM

Query: Reported IC50 at 72 h, molecule O=C(N/C=C/c1cccc(C(F)(F)F)c1)Nc1ccc2c(c1)OCO2 : ____
Result: > 20 µM

Query: GET /values?readout=IC50 at 72 h&item= O=C(N/C=C/c1cccc(C(F)(F)F)c1)Nc1cnc2ccccc2c1
Result: > 10 µM

Query: IC50 at 72 h for O=C(N/C=C/c1cc(C(F)(F)F)cc(C(F)(F)F)c1)Nc1cnc2ccccc2c1 ?
Result: 8.4 µM

Query: What value of measured IC50 at 72 h is listed for O=C(N/C=C/c1cc(C(F)(F)F)ccc1C(F)(F)F)Nc1ccc2ncccc2c1 ?
Result: > 10 µM

Query: Can you share its IC50 at 72 h? I mean this molecule: O=C(N/C=C/c1cccc(C(F)(F)F)c1)Nc1ccc2[nH]ccc2c1
Result: > 10 µM

Query: Give its IC50 at 72 h value. Item: O=C(N/C=C/c1cc(C(F)(F)F)cc(C(F)(F)F)c1)Nc1ccc2[nH]ccc2c1
Result: > 10 µM

Query: I am curious: what IC50 at 72 h value has been reported for O=C(N/C=C/c1cc(C(F)(F)F)cc(C(F)(F)F)c1)Nc1ccc2ncccc2c1 ?
Result: > 10 µM

Query: # input molecule: O=C(N/C=C/c1ccc(C(F)(F)F)cc1)Nc1ccc2c(c1)OCO2 ; wanted: its IC50 at 72 h
Result: > 20 µM

Recorded values, source patent US20170273922A1.
